assay: Cmax in lean C57BL/6J mouse at 100 mg/kg, ip by LC-MS analysis; format: ADME, organism-based; set-up: dose 100 mg/kg, route intraperitoneal; details: in vivo
measured attribute: Cmax (µg/mL)
The reply should be a number in µg/mL, with the unit left off.

QUERY: Dear colleague, please send me the reported Cmax for CC(=O)N[C@@H](CCC(=O)O)C(=O)N[C@@H](Cc1c[nH]c2ccccc12)C(=O)N[C@@H](CCCNC(=N)N)C(=O)N[C@@H](Cc1ccccc1)C(=O)N[C@H]1CC(=O)NC[C@@H](C(=O)N[C@@H](CC(C)C)C(=O)N[C@@H](Cc2ccc(O)cc2)C(=O)N[C@@H](CC(C)C)C(=O)N[C@H](C(=O)N[C@@H](CS)C(=O)NCC(N)=O)C(C)C)NC(=O)[C@H](CCC(=O)O)NC(=O)[C@@H]2CCCN2C(=O)[C@H]2CCCN2C(=O)CNC1=O when you can.
RESULT: 619

----------
Target: Insulin-degrading enzyme (Mus musculus)
Sequence (Q9JHR7 whole entry): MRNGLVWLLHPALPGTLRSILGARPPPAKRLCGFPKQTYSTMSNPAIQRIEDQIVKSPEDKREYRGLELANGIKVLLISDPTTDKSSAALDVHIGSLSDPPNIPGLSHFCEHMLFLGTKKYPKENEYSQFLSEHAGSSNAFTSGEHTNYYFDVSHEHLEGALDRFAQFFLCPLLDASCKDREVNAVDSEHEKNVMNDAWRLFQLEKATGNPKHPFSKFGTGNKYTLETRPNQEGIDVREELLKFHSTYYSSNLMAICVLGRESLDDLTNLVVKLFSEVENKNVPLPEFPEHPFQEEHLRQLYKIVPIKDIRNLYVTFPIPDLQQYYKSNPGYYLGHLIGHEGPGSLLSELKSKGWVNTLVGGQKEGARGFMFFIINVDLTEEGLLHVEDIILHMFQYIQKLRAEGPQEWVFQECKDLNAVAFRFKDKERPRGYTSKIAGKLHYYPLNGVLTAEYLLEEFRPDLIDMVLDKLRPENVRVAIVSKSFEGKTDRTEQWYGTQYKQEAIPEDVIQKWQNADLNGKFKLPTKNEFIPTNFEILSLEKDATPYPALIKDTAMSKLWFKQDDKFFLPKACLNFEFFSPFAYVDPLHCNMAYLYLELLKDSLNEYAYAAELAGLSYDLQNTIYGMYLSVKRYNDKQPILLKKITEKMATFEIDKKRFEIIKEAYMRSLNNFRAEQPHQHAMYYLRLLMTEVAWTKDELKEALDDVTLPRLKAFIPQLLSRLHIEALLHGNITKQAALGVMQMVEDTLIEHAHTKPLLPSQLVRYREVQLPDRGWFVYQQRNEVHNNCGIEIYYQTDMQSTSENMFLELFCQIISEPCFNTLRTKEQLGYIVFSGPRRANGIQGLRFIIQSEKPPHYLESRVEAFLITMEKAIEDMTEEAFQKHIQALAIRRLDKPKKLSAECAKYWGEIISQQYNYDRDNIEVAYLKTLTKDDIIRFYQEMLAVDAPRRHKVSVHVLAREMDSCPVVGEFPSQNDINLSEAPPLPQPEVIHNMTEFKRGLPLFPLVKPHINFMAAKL
Assay: Inhibition of mouse His-tagged IDE (42 to 1019 residues) using fluorophore/quencher-tagged RPPGFSAFK(Dnp)-OH peptide as substrate preincubated for 10 mins followed by substrate addition measured over 5 mins by TR-FRET assay
Peptide text beside a SMILES is read from it.
Overview of recorded IC50 for various compounds
Please state the figure in nM; there is no need to write the unit.

Solved entries:
[
  {
    "compound": "CC(C)C[C@H](NC(=O)[C@H](C)NC(=O)[C@@H](N)CCC(=O)O)C(=O)N[C@@H](Cc1ccc(O)cc1)C(=O)N[C@@H](CC(C)C)C(=O)N[C@H](C(=O)N[C@@H](CS)C(=O)NCC(=O)N1CCC[C@@H]1C(=O)N1CCC[C@H]1C(=O)N[C@@H](Cc1ccccc1)C(=O)N[C@@H](CCCNC(=N)N)C(=O)N[C@@H](Cc1c[nH]c2ccccc12)C(=O)N[C@@H](CCC(=O)O)C(N)=O)C(C)C",
    "unit symbol": "nM",
    "IC50": 170
  },
  {
    "compound": "CC(C)C[C@H](NC(=O)[C@H](C)NC(=O)[C@H](CCC(=O)O)NC(=O)[C@@H]1CCCN1C(=O)[C@H]1CCCN1C(=O)[C@H](Cc1ccccc1)NC(=O)[C@H](CCCNC(=N)N)NC(=O)[C@H](Cc1c[nH]c2ccccc12)NC(=O)[C@@H](N)CCC(=O)O)C(=O)N[C@@H](Cc1ccc(O)cc1)C(=O)N[C@@H](CC(C)C)C(=O)N[C@H](C(=O)N[C@H](CS)C(=O)NCC(N)=O)C(C)C",
    "unit symbol": "nM",
    "IC50": 74
  }
]

Consider the record given below.
QUERY: Look up and state reported IC50 for CC(C)C[C@H](NC(=O)[C@H](C)NC(=O)[C@@H](N)CCC(=O)O)C(=O)N[C@@H](Cc1ccc(O)cc1)C(=O)N[C@@H](CC(C)C)C(=O)N[C@H](C(=O)N[C@@H](CS)C(=O)NCC(N)=O)C(C)C (H-EALYLVCG-NH2)
RESULT: 230
